From: PubChem BioAssay (EPA / NIEHS)

- Protocol Details: CCTE_Shafer_MEA_dev_per_burst_spike_percent: CCTE's Neural Network Formation Assay for Percent of Spikes in a Burst, Shafer Lab (AID 2284032)
Calls of active or inactive are those of the source. The calls were made as follows: active = hit-call score of the fitted dose curve at least 0.9, where 1 is the maximum; inactive = score below 0.9.
Hello, when you answer, please use one of the following outcomes: True = active, False = inactive

[[record]]
compound_string = "O=c1[nH]cc(F)c(=O)[nH]1"
assigned_category = "True"

[[record]]
compound_string = "Cc1cc(=O)[nH]c(=S)[nH]1"
assigned_category = "False"

[[record]]
compound_string = "C=CCc1ccc(O)c(OC)c1"
assigned_category = "False"


# ---- query compound ----
In this assay, the call recorded for CC(=O)Oc1ccccc1C(=O)O was what? False
